readout name: melting point

Quick one: melting point for `CC1(C)OC(c2ccc(S(C)(=O)=O)cc2F)=C(c2cccc(F)c2)C1=O` ?
157 to 158 °C

// returns reported melting point for input `CC1(C)OC(c2ccc(S(C)(=O)=O)cc2)=C(c2cccnc2)C1=O`
164 to 166 °C

Requested read-out: melting point. Entry: `CC1(C)OC(c2ccc(S(N)(=O)=O)cc2)=C(c2cc3ccccc3o2)C1=O`
143 to 145 °C

melting point lookup needed for `Cn1cc(C2=C(c3ccc(S(C)(=O)=O)cc3)OC(C)(C)C2=O)cn1` , thanks.
114 to 115 °C

Dear colleague, I am looking for the recorded melting point of the following compound: C[S+]([O-])c1ccc(C2=C(c3cc(F)cc(F)c3)C(=O)C(C)(C)O2)cc1 (centres unmarked)
133 to 134 °C

Param item = `CC1(C)OC(c2ccc(S(C)(=O)=O)cc2F)=C(c2ccc(F)cc2)C1=O` ; retrieve measured melting point.
150 to 152 °C

Fill blank: measured melting point of the compound `CC1(C)OC(c2ccc(S(C)(=O)=O)c(Cl)c2)=C(c2cc(F)cc(F)c2)C1=O` is ____.
200 to 201 °C

So what's the measured melting point for this one? `CC1(C)OC(c2ccc(S(C)(=O)=O)cc2)=C(c2cccc(F)c2)C1=O`
178 to 179 °C

The reported numbers originate from patent US6492416B1.
